Value source: PubChem BioAssay AID504419

tested-system: NS3h 1b (con1)
measurement-description: NS3 helicase inhibitors across HCV genotypes, late-stage follow-up, selectivity assay for HCV NS3 helicase inhibitor project, biochemical, real-time fluorescence, genotypes 2a and 1b, Set 2 (AID 504419)
run-parameters: Recombinant NS3 helicase, real-time fluorescence unwinding
Calls of active or inactive are those of the source. No rule for the calls is given here.
Return exactly one item of active, inactive

// below: answered molecules
In [3]: df
Out[3]:
                                   molecule   tested_system  category
0  Cc1ccc2nc(-c3ccc(NC(=O)c4ccc5ncoc5c4)cc3)sc2c1  NS3h 1b (con1)  inactive
1  CCN(CC)S(=O)(=O)c1cccc(C(=O)N/N=C/c2ccc(O)c(O)c2O)c1  NS3h 1b (con1)  inactive
2  CCCCCCCCCc1nc2sc3c(c2c(=O)n1NC(=O)c1ccccc1[N+](=O)[O-])CC(C)(C)OC3  NS3h 1b (con1)  inactive
3  Cc1ccc2nc(-c3ccc4nc(-c5ccc6nc(-c7ccc8nc(-c9ccc(N)cc9)sc8c7)sc6c5)sc4c3)sc2c1S(=O)(=O)O  NS3h 1b (con1)    active
4  Cc1ccc(C(=O)C2=C(O)C(=O)N(Cc3ccco3)C2c2cc(Cl)cc(Cl)c2)o1 (centres undefined)  NS3h 1b (con1)  inactive

Query: Status in this test for O=C(Nc1nc(-c2ccco2)c(-c2ccco2)s1)C1CCC1 ?
Reply: inactive

Query: Status in this test for Nc1c(C(=O)Nc2ccccc2F)sc2nc(-c3ccco3)ccc12 ?
Reply: inactive

Query: Status in this test for N#C/C(=C\c1ccc(O)c(O)c1)S(=O)(=O)c1ccccc1 ?
Reply: inactive

Query: Status in this test for CCCCCOc1ccc(C2C(C(=O)c3ccc(C)o3)=C(OC)C(=O)N2c2cc(C)on2)cc1 (centres undefined) ?
Reply: inactive

Query: Status in this test for COc1cc(Br)cc(C2C(C(=O)c3ccc(C)o3)=C(O)C(=O)N2Cc2ccccc2)c1OC (centres undefined) ?
Reply: inactive

Query: Status in this test for CCCCOc1ccc(C2C(C(=O)c3ccc(C)o3)=C(O)C(=O)N2c2cc(C)on2)cc1 (centres undefined) ?
Reply: inactive
